Each entry below carries its recorded IC50.
- Assayed Target: human orexin-1 receptor (Homo sapiens, UniProt O43613)
- Construct: expressed in transfected cells; host or cells: Chinese hamster ovary (CHO) cells, G418 selection
- Sequence (O43613 1-425): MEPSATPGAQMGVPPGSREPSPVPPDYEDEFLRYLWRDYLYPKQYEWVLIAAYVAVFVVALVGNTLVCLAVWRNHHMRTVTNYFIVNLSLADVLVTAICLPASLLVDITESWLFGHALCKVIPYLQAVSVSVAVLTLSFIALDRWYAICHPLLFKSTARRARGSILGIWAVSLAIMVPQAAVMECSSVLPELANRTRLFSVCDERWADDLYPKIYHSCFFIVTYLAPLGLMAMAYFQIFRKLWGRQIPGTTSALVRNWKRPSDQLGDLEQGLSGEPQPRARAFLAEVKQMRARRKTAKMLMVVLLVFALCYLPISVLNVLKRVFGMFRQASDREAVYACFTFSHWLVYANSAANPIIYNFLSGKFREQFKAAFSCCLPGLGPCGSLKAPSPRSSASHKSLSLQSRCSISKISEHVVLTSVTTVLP
- Assay Method Text: Intracellular calcium measurements (FLIPR), orexin receptor antagonistic activity
- Type: cell-based
- Test Conditions: FLIPR2; CHO cells expressing human orexin-1 receptor; 3 nM orexin-A; read-out: OX1 IC50
Entry rule: numbers only, all in nM.

Cc1c(C(=O)NC[C@@H]2[C@H]3C[C@H]3CN2C(=O)c2nc(N)sc2-c2cccc(F)c2)sc2nccn12 [Example 124] :: 7030
CCn1nc(C)cc1C(=O)NC[C@@H]1[C@H]2C[C@H]2CN1C(=O)c1nc(C)sc1-c1cccc(Cl)c1 [Example 80] :: 29

# ---- query compound ----
*Q* Please give the documented IC50 of Cc1nc2sccn2c1C(=O)NC[C@@H]1[C@H]2C[C@H]2CN1C(=O)c1ccccc1-c1cccs1 [Example 32]
*A* 15

====

The following compounds are listed with their measured IC50 values.
- Assayed Target: human orexin-2 receptor (Homo sapiens)
- Construct: expressed in transfected cells; host or cells: Chinese hamster ovary (CHO) cells, G418 selection
- Sequence (O43614 1-444): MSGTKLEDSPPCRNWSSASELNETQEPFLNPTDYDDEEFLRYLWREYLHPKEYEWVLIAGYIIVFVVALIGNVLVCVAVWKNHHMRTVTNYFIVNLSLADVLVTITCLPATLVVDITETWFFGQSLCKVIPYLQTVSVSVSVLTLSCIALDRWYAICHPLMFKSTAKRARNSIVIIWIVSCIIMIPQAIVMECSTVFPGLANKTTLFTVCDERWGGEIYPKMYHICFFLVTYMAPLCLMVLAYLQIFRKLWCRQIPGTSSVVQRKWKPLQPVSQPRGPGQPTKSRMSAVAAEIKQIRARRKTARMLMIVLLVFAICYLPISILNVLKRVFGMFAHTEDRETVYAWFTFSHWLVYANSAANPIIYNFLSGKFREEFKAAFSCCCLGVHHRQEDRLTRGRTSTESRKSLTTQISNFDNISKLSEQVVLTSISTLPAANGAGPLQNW
- Assay Method Text: Intracellular calcium measurements (FLIPR), orexin receptor antagonistic activity
- Type: cell-based
- Test Conditions: FLIPR2; CHO cells expressing human orexin-2 receptor; 3 nM orexin-A; read-out: OX2 IC50
Note: a bare number is incomplete; add the unit.

Recorded IC50, per entry:
Cc1cccc(-c2sc(C)nc2C(=O)N2C[C@@H]3C[C@@H]3[C@H]2CNC(=O)c2n[nH]c3ccccc23)c1 :: 57 nM
Cc1cccc(-c2sc(C)nc2C(=O)N2C[C@@H]3C[C@@H]3[C@H]2CNC(=O)c2cc(F)cc3c2OCOC3)c1 :: 12 nM

*Q* Please indicate IC50 recorded for `Cc1nc(C(=O)N2C[C@@H]3C[C@@H]3[C@H]2CNC(=O)c2cccc3c2OC(C)(C)C3)c(-c2cccc(Cl)c2)s1`
*A* 9 nM

*Q* Retrieve IC50 measured for `Cc1nc(C(=O)N2C[C@@H]3C[C@@H]3[C@H]2CNC(=O)c2cccc(Br)c2)c(-c2cccc(Cl)c2)s1` and print it.
*A* 48 nM

*Q* State, in one line, measured IC50 of `Cc1cc(C)cc(C(=O)NC[C@@H]2[C@H]3C[C@H]3CN2C(=O)c2nc(C)sc2-c2cccc(C)c2)c1`
*A* 26 nM

*Q* Answer with the recorded IC50 for the compound listed here: `Cc1cccc(-c2sc(C)nc2C(=O)N2C[C@@H]3C[C@@H]3[C@H]2CNC(=O)c2cccc(C(F)(F)F)c2)c1`
*A* 61 nM

*Q* Provide only the value of recorded IC50 for `Nc1nc(C(=O)N2C[C@@H]3C[C@@H]3[C@H]2CNC(=O)c2nccc3ccccc23)c(-c2cccc(F)c2)s1`
*A* 12 nM

*Q* Provide one value: measured IC50 of `Cn1cc(C(=O)NC[C@@H]2[C@H]3C[C@H]3CN2C(=O)c2nc(N)sc2-c2cccc(F)c2)c2ccccc21`
*A* 48 nM

====

IC50 reference
- Assayed Target: human orexin-2 receptor (Homo sapiens)
- Construct: expressed in transfected cells; host or cells: Chinese hamster ovary (CHO) cells, G418 selection
- Assay Method Text: Intracellular calcium measurements (FLIPR), orexin receptor antagonistic activity
- Type: cell-based
- Test Conditions: FLIPR Tetra, optimized conditions; CHO cells expressing human orexin-2 receptor; 3 nM orexin-A; read-out: OX2 IC50
Put your answer as a value accompanied by its unit after it.

Here are 5 molecules together with their reported answers.
CCn1nc(C)cc1C(=O)NC[C@@H]1[C@H]2C[C@H]2CN1C(=O)c1nc(C2CC2)sc1-c1cccc(C)c1 [Example 237] :: 38 nM
Cc1cccc(-c2sccc2C(=O)N2C[C@@H]3C[C@@H]3[C@H]2CNC(=O)c2cccc3oc(C)nc23)c1 [Example 297] :: 16 nM
Cc1ccc(-c2ccsc2C(=O)N2C[C@@H]3C[C@@H]3[C@H]2CNC(=O)c2c(C)nc3sccn23)cc1 [Example 222] :: 79 nM
Cc1cccc(-c2sc(C)nc2C(=O)N2C[C@@H]3C[C@@H]3[C@H]2CNC(=O)c2cccc3sc(Cl)nc23)c1 [Example 299] :: 14 nM
Cc1cccc(-c2sc(C)nc2C(=O)N2C[C@@H]3C[C@@H]3[C@H]2CNC(=O)c2ccn3ccsc23)c1 [Example 260] :: 31 nM

Moving on to the next molecule.
*Q* Hello, please tell me recorded IC50 for this one: Cc1cccc(-c2sc(C)nc2C(=O)N2C[C@@H]3C[C@@H]3[C@H]2CNC(=O)c2cccc3nc(C)oc23)c1 [Example 256]
*A* 55 nM

====

- Assayed Target: human orexin-1 receptor (Homo sapiens, UniProt O43613)
- Construct: expressed in transfected cells; host or cells: Chinese hamster ovary (CHO) cells, G418 selection
- Assay Method Text: Intracellular calcium measurements (FLIPR), orexin receptor antagonistic activity
- Type: cell-based
- Test Conditions: FLIPR2; CHO cells expressing human orexin-1 receptor; 3 nM orexin-A; read-out: OX1 IC50
Listing of entries alongside the reported IC50.
Report as a plain number; the unit nM is understood.

Here are 3 compounds together with their reported answers.
Cc1nc(C(=O)N2C[C@@H]3C[C@@H]3[C@H]2CNC(=O)c2cccc(Br)c2)c(-c2cccc(Cl)c2)s1 [Example 74] :: 84
Cc1cccc(-c2sc(C)nc2C(=O)N2C[C@@H]3C[C@@H]3[C@H]2CNC(=O)c2cccc3c2OC(C)(C)C3)c1 [Example 43] :: 26
Cn1cc(C(=O)NC[C@@H]2[C@H]3C[C@H]3CN2C(=O)c2nc(N)sc2-c2cccc(F)c2)c2ccccc21 [Example 115] :: 178

*Q* Supply IC50 value. Item: Cc1nc(-c2cccc(F)c2)c(C(=O)N2C[C@@H]3C[C@@H]3[C@H]2CNC(=O)c2c(C)nc3sccn23)s1 [Example 37]
*A* 85

*Q* Specify IC50 for Cc1cccc(-c2sc(C)nc2C(=O)N2C[C@@H]3C[C@@H]3[C@H]2CNC(=O)c2cccc(C(F)(F)F)c2)c1 [Example 45] and stop.
*A* 110

*Q* Give a short answer stating reported IC50 for Cc1nc2sccn2c1C(=O)NC[C@@H]1[C@H]2C[C@H]2CN1C(=O)c1ccccc1C1CCCCC1 [Example 31] .
*A* 960

*Q* Please supply the value of reported IC50 for the item Cc1nc2sccn2c1C(=O)NC[C@@H]1[C@H]2C[C@H]2CN1C(=O)c1ccccc1-c1ccccc1F [Example 19]
*A* 22

====

- Assayed Target: human orexin-1 receptor (Homo sapiens)
- Construct: expressed in transfected cells; host or cells: Chinese hamster ovary (CHO) cells, G418 selection
- Assay Method Text: Intracellular calcium measurements (FLIPR), orexin receptor antagonistic activity
- Assay type: cell-based
- Test Conditions: FLIPR2; CHO cells expressing human orexin-1 receptor; 3 nM orexin-A; read-out: OX1 IC50
compounds and their reported log10 of IC50
Quick note: numbers are log10 of IC50, with nM as the unit.

Here are 2 compounds together with their reported answers.
Cn1nc(C(=O)NC[C@@H]2[C@H]3C[C@H]3CN2C(=O)c2nc(N)sc2-c2cccc(F)c2)c2ccccc21 :: 1.90
Cc1cc(C)cc(C(=O)NC[C@@H]2[C@H]3C[C@H]3CN2C(=O)c2nc(C)sc2-c2cccc(C)c2)c1 :: 2.51

*Q* Supply measured log10 of IC50 of `Cc1nc(C(=O)N2C[C@@H]3C[C@@H]3[C@H]2CNC(=O)c2cccc3c2OC(C)(C)C3)c(-c2cccc(Cl)c2)s1` in your reply.
*A* 1.32

*Q* # return recorded log10 of IC50 for input `Cc1cccc(-c2sc(C)nc2C(=O)N2C[C@@H]3C[C@@H]3[C@H]2CNC(=O)c2cccc3c2N(C)CCO3)c1`
*A* 2.84
